# phosphorylation enrichment annotations
Tested on: AncSZ;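 note: 11-residue human phosphosite peptides and single-mutation variants displayed on the E. coli surface, counted by deep sequencing, each peptide's frequency after selection divided by its frequency in the unselected input library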;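 note: frequency after pTyr selection over input frequency; kinase dosed for 20-30% of maximal phosphorylation in three min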
procedureDetails: phosphorylation enrichment, bacterial display (enrichment ratio); higher = better substrate or ligand; peptides without Tyr show the background
Give a plain numeric answer without units written out.

Worked cases, phosphorylation enrichment given:
• AQVDTYCRHNF [HLA-DRB1_Y107_A103Q_YF] = 0.676
• TNYRLYLRSLE [MTM1_Y71] = 1.11
• CTSIHYNYMCN [TP53_Y234_T231S] = 0.842
• EKFVPYYDLFM [IPO5_Y530] = 1.2
• RLLRGYRQDAF [HLA-A_Y137_F133L_YF] = 1.22

Q: Which measured phosphorylation enrichment value corresponds to SVVVRYEPPEV [TP53_Y220_P219R] ?
A: 0.892

Q: Which measured phosphorylation enrichment value corresponds to AIYWRYSKFFD [SH3PXD2B_Y45_R43W] ?
A: 1.3

###

# SH2 binding enrichment annotations
assaySystem: c-Src SH2;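 note: peptide library displayed on the E. coli surface as eCPX fusions, selected cells deep-sequenced, score is each peptide's frequency after selection divided by its frequency in the input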
procedureDetails: SH2 binding enrichment of the phosphorylated peptide, bacterial display (enrichment ratio); higher = better substrate or ligand; peptides without Tyr show the background
Give a plain numeric answer without units written out.

Worked cases, SH2 binding enrichment given:
• ARLDEYIAIAK [RCOR3_Y46_K42R] = 0.505
• MEVEQYIFVKC [CYBB_Y324_G322E] = 0.513
• EFNLMYHGTKE [IRF6_Y97_D98H] = 0.656

Q: Which measured SH2 binding enrichment value corresponds to TLMNAYSSRSH [KIF11_Y231] ?
A: 0.427

Q: Which measured SH2 binding enrichment value corresponds to LSCVIYVILRK [PMP22_Y153_G150C] ?
A: 1.75

Q: Which measured SH2 binding enrichment value corresponds to SAEKAYHEQFS [TUBA1A_Y282_L286F] ?
A: 0.512

Q: Which measured SH2 binding enrichment value corresponds to VAMELYVFRGV [GAN_Y471_G474R] ?
A: 0.548

Q: Which measured SH2 binding enrichment value corresponds to RRAKGYPIFLF [ITGB2_Y125_D128Y_YF] ?
A: 0.582

Q: Which measured SH2 binding enrichment value corresponds to DVMDFYKTLRG [NR3C1_Y30] ?
A: 0.47

Q: Which measured SH2 binding enrichment value corresponds to SDTGQYQCLVF [AXL_Y115] ?
A: 0.449

Q: Which measured SH2 binding enrichment value corresponds to LGPSDYFGETA [PRKAR1A_Y323_I327T] ?
A: 0.59

Q: Which measured SH2 binding enrichment value corresponds to SIKGKYVTALY [KCNH2_Y611_D609G] ?
A: 0.472

Q: Which measured SH2 binding enrichment value corresponds to MHDKEYYSVHN [MET_Y1234_Y1230H] ?
A: 0.513

Q: Which measured SH2 binding enrichment value corresponds to LPKVSYVKAID [GLRA1_Y307] ?
A: 0.459

Q: Which measured SH2 binding enrichment value corresponds to IFETDYFQKGG [INSR_Y1189_R1191Q_YF] ?
A: 0.492

Q: Which measured SH2 binding enrichment value corresponds to QRIHNYYEHRY [HCN4_Y554_D553N] ?
A: 1.7

Q: Which measured SH2 binding enrichment value corresponds to QQLDEYQKLLD [LMNA_Y359_E361K] ?
A: 0.699

Q: Which measured SH2 binding enrichment value corresponds to HSFQCYGRNEA [ENTPD3_Y262] ?
A: 0.529

Q: Which measured SH2 binding enrichment value corresponds to APGNAYGDAGY [SYP_Y250_D248N] ?
A: 0.441

Q: Which measured SH2 binding enrichment value corresponds to EREYKYGAHKY [OAT_Y50_N54K] ?
A: 0.564
